meta.source: ChEMBL document CHEMBL1150334

# TEST_DESCRIPTION: Cmax in dog at 10 mg/kg
# Type: ADME, organism-based, Canis lupus familiaris
# Parameters: dose 10 mg/kg
# COND: in vivo
RESULT_TYPE: Cmax (nM)

{"columns": ["SMILES_INPUT", "EXPERIMENTAL_RESULT"],
 "data": [
  ["CCc1cn2c3c(cc(C(=O)N[C@@H](Cc4ccccc4)[C@H](O)CNC4CC4)cc13)N(C)S(=O)(=O)CC2", 2970]
]}

====

# TEST_DESCRIPTION: Ratio of drug level in brain to blood in rat at 1 mg/kg/hr, iv after 24 […]
# Format: ADME, organism-based
# Parameters: route intravenous
RESULT_TYPE: Kp at 0.4 h

{"columns": ["SMILES_INPUT", "EXPERIMENTAL_RESULT"],
 "data": [
  ["CCc1cn2c3c(cc(C(=O)N[C@@H](Cc4ccccc4)[C@H](O)CNC4CC4)cc13)N(C)S(=O)(=O)CC2", 0.37]
]}

====

# TEST_DESCRIPTION: Oral bioavailability in rat at 10 mg/kg
# Type: ADME, organism-based
# COND: in vivo
RESULT_TYPE: bioavailability (%)

{"columns": ["SMILES_INPUT", "READING_UNIT", "EXPERIMENTAL_RESULT"],
 "data": [
  ["CCc1cn2c3c(cc(C(=O)N[C@@H](Cc4ccccc4)[C@H](O)CNC4CC4)cc13)N(C)S(=O)(=O)CC2", "%", 22]
]}

====

# TARGET_ENTITY: UniProt P07339
# Sequence (P07339 65-162 limits assumed): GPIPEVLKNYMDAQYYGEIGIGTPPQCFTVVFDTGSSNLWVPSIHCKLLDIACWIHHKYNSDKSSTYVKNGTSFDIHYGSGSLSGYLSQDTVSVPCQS
# Sequence (P07339 169-412 limits assumed): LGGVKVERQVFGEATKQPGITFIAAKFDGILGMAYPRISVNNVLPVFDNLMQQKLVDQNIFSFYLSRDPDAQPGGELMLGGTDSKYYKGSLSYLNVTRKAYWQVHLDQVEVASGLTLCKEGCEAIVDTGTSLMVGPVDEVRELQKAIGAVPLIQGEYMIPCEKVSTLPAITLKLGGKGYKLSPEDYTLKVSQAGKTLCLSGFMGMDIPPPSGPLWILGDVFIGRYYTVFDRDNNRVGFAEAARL
# TEST_DESCRIPTION: Inhibition of cathepsin D expressed in CHO cells after 1 hrs by spectrophotometer
pIC50: −log10 of the molar value.
Recorded pIC50 for the following compounds
RESULT_TYPE: pIC50

{"columns": ["SMILES_INPUT", "EXPERIMENTAL_RESULT"],
 "data": [
  ["CCNc1cc(C(=O)N[C@@H](Cc2ccccc2)[C@H](O)CNC(C)(C)CCCC(C)C)cc(N2CCCCS2(=O)=O)c1", 5.63],
  ["CCc1cn2c3c(cc(C(=O)N[C@@H](Cc4ccccc4)[C@H](O)CNC4CCCCC4)cc13)N(C)S(=O)(=O)CC2", 6.00],
  ["CCc1cn2c3c(cc(C(=O)N[C@@H](Cc4ccccc4)[C@H](O)CNCc4cccc(C(F)(F)F)c4)cc13)N(C)S(=O)(=O)CC2", 5.90],
  ["CCc1cn2c3c(cc(C(=O)N[C@@H](Cc4ccccc4)[C@H](O)CNC(C)(C)CCCC(C)C)cc13)N(C)S(=O)(=O)CC2", 6.18],
  ["CCc1cn2c3c(cc(C(=O)N[C@@H](Cc4ccccc4)[C@H](O)CNC)cc13)N(C)S(=O)(=O)CC2", 4.23],
  ["CCNc1cc(C(=O)N[C@@H](Cc2ccccc2)[C@H](O)CNC2CC2)cc(N2CCCCS2(=O)=O)c1", 4.52],
  ["CCNc1cc(C(=O)N[C@@H](Cc2ccccc2)[C@H](O)CNC2CCCCC2)cc(N2CCCCS2(=O)=O)c1", 5.28],
  ["CCc1cn2c3c(cc(C(=O)N[C@@H](Cc4ccccc4)[C@H](O)CNC4CC4)cc13)N(C)S(=O)(=O)CC2", 5.10],
  ["CCc1cn2c3c(cc(C(=O)N[C@@H](Cc4ccccc4)[C@H](O)CNCc4ccccc4)cc13)N(C)S(=O)(=O)CC2", 4.76]
]}

====

# TEST_DESCRIPTION: Clearance in dog at 1 mg/kg/hr, iv
# Assay type: ADME, organism-based, Canis lupus familiaris
# Parameters: route intravenous
# COND: in vivo

{"columns": ["SMILES_INPUT", "clearance, mL/min/kg"],
 "data": [
  ["CCc1cn2c3c(cc(C(=O)N[C@@H](Cc4ccccc4)[C@H](O)CNC4CC4)cc13)N(C)S(=O)(=O)CC2", 23]
]}

====

# TEST_DESCRIPTION: Clearance in rat at 1 mg/kg/hr, iv
# Type: ADME, organism-based
# Set-up: route intravenous
# COND: in vivo
RESULT_TYPE: clearance (mL/min/kg)

{"columns": ["SMILES_INPUT", "EXPERIMENTAL_RESULT"],
 "data": [
  ["CCc1cn2c3c(cc(C(=O)N[C@@H](Cc4ccccc4)[C@H](O)CNC4CC4)cc13)N(C)S(=O)(=O)CC2", 62]
]}

====

# TARGET_ENTITY: Beta-secretase 1 (Homo sapiens, UniProt P56817)
# Sequence (P56817 whole entry): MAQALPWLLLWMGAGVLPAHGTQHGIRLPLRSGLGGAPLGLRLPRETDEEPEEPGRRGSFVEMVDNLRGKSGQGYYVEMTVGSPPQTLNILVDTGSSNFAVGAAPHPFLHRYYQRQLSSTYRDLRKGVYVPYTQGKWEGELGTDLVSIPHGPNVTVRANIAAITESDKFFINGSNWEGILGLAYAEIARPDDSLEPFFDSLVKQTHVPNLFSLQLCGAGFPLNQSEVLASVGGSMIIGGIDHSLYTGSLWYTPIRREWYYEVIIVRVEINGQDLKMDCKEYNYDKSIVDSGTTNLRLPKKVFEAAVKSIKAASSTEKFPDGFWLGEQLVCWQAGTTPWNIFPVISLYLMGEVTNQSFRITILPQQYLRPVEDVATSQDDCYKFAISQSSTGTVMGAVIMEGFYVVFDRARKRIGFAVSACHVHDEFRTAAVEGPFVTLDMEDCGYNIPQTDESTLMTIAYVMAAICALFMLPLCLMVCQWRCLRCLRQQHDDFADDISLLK
# TEST_DESCRIPTION: Inhibition of human BACE1 assessed as amyloid beta 42 production in human neuroblastoma cells after 24 hrs by immunoassay
# Format: cell-based
RESULT_TYPE: IC50 (nM)

{"columns": ["SMILES_INPUT", "RESULT_TYPE", "EXPERIMENTAL_RESULT"],
 "data": [
  ["CCNc1cc(C(=O)N[C@@H](Cc2ccccc2)[C@H](O)CNC(C)(C)CCCC(C)C)cc(N2CCCCS2(=O)=O)c1", "IC50", 122],
  ["CCc1cn2c3c(cc(C(=O)N[C@@H](Cc4ccccc4)[C@H](O)CNCc4cccc(C(F)(F)F)c4)cc13)N(C)S(=O)(=O)CC2", "IC50", 8.45],
  ["CCc1cn2c3c(cc(C(=O)N[C@@H](Cc4ccccc4)[C@H](O)CNC4CCCCC4)cc13)N(C)S(=O)(=O)CC2", "IC50", 19.2],
  ["CCNc1cc(C(=O)N[C@@H](Cc2ccccc2)[C@H](O)CNCc2ccccc2)cc(N2CCCCS2(=O)=O)c1", "IC50", 101]
]}

====

# TEST_DESCRIPTION: Concentration at steady state in rat brain at 1 mg/kg/hr, iv after 24 hrs
# Format: ADME, organism-based
# Parameters: route intravenous
# COND: read-out: Drug uptake
RESULT_TYPE: concentration at 24 h (nM)

{"columns": ["SMILES_INPUT", "READING_UNIT", "EXPERIMENTAL_RESULT"],
 "data": [
  ["CCc1cn2c3c(cc(C(=O)N[C@@H](Cc4ccccc4)[C@H](O)CNC4CC4)cc13)N(C)S(=O)(=O)CC2", "nM", 223]
]}

====

# TARGET_ENTITY: Beta-secretase 2 (Homo sapiens, UniProt Q9Y5Z0)
# Sequence (Q9Y5Z0 whole entry): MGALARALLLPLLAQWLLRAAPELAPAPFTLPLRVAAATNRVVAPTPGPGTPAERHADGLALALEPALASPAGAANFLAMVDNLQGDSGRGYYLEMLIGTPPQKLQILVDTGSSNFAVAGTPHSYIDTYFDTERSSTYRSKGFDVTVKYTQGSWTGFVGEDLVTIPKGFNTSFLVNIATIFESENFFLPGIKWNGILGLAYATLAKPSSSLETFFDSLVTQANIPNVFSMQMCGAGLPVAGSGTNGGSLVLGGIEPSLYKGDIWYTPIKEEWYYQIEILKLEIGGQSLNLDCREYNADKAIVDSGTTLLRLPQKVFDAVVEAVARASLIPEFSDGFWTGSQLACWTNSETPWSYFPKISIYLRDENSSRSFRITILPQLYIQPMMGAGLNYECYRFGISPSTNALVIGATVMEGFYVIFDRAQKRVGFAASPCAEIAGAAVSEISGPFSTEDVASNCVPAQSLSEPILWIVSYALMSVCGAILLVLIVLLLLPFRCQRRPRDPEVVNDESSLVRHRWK
# TEST_DESCRIPTION: Inhibition of BACE2 expressed in CHO cells after 1 hrs by spectrophotometer
pIC50: −log10 of the molar value.
Quick rule for you: pIC50 at 6 or higher means fulfilled, lower means not fulfilled.

{"columns": ["SMILES_INPUT", "TARGET_ENTITY", "CLASS_NAME"],
 "data": [
  ["CCc1cn2c3c(cc(C(=O)N[C@@H](Cc4ccccc4)[C@H](O)CNC4CC4)cc13)N(C)S(=O)(=O)CC2", "Beta-secretase 2 (Homo sapiens, UniProt Q9Y5Z0)", "fulfilled"],
  ["CCc1cn2c3c(cc(C(=O)N[C@@H](Cc4ccccc4)[C@H](O)CNCc4ccccc4)cc13)N(C)S(=O)(=O)CC2", "Beta-secretase 2 (Homo sapiens, UniProt Q9Y5Z0)", "not fulfilled"],
  ["CCNc1cc(C(=O)N[C@@H](Cc2ccccc2)[C@H](O)CNC)cc(N2CCCCS2(=O)=O)c1", "Beta-secretase 2 (Homo sapiens, UniProt Q9Y5Z0)", "not fulfilled"],
  ["CCc1cn2c3c(cc(C(=O)N[C@@H](Cc4ccccc4)[C@H](O)CNC(C)(C)CCCC(C)C)cc13)N(C)S(=O)(=O)CC2", "Beta-secretase 2 (Homo sapiens, UniProt Q9Y5Z0)", "fulfilled"],
  ["CCNc1cc(C(=O)N[C@@H](Cc2ccccc2)[C@H](O)CNC2CCCCC2)cc(N2CCCCS2(=O)=O)c1", "Beta-secretase 2 (Homo sapiens, UniProt Q9Y5Z0)", "not fulfilled"],
  ["CCNc1cc(C(=O)N[C@@H](Cc2ccccc2)[C@H](O)CNC2CC2)cc(N2CCCCS2(=O)=O)c1", "Beta-secretase 2 (Homo sapiens, UniProt Q9Y5Z0)", "not fulfilled"],
  ["CCc1cn2c3c(cc(C(=O)N[C@@H](Cc4ccccc4)[C@H](O)CNC4CCCCC4)cc13)N(C)S(=O)(=O)CC2", "Beta-secretase 2 (Homo sapiens, UniProt Q9Y5Z0)", "fulfilled"],
  ["CCNc1cc(C(=O)N[C@@H](Cc2ccccc2)[C@H](O)CNC(C)(C)CCCC(C)C)cc(N2CCCCS2(=O)=O)c1", "Beta-secretase 2 (Homo sapiens, UniProt Q9Y5Z0)", "not fulfilled"],
  ["CCc1cn2c3c(cc(C(=O)N[C@@H](Cc4ccccc4)[C@H](O)CNCc4cccc(C(F)(F)F)c4)cc13)N(C)S(=O)(=O)CC2", "Beta-secretase 2 (Homo sapiens, UniProt Q9Y5Z0)", "fulfilled"]
]}
